- System: SW948 (Colorectal Carcinoma)
- assay explanation: Bliss excess, mean over the matrix (fraction); higher = more synergy;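 further: after 72 h of two-drug dosing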
Listed below: Bliss excess values for each entry.
readout type: Bliss excess

1) COc1cccc(OCCCN)c1-c1cc(Nc2cnc(C#N)cn2)n[nH]1 [Prexasertib] + C=CCn1c(=O)c2cnc(Nc3ccc(N4CCN(C)CC4)cc3)nc2n1-c1cccc(C(C)(C)O)n1 [AZD1775] (first compound max 1 µM, partner max 1 µM)    0.0608
2) CC(=O)c1c(C)c2cnc(Nc3ccc(N4CCNCC4)cn3)nc2n(C2CCCC2)c1=O [Palbociclib] + Cn1cnc2c(F)c(Nc3ccc(Br)cc3Cl)c(C(=O)NOCCO)cc21 [Selumetinib] (first compound max 10 µM, 7x7, partner max 10 µM)    -0.0078
3) CN(CCO)CC[C@H](CSc1ccccc1)Nc1ccc(S(=O)(=O)NC(=O)c2ccc(N3CCC([C@@H](O)c4ccccc4-c4ccc(Cl)cc4)CC3)cc2)cc1S(=O)(=O)C(F)(F)F [AZD4320] + CC(=O)O[C@H]1C(=O)[C@@]2(C)[C@H]([C@H](OC(=O)c3ccccc3)[C@]3(O)C[C@H](OC(=O)[C@H](O)[C@@H](NC(=O)c4ccccc4)c4ccccc4)C(C)=C1C3(C)C)[C@]1(OC(C)=O)CO[C@@H]1C[C@@H]2O [Paclitaxel] (first compound max 1 µM, 7x7, partner max 3 µM)    -0.0074
4) C=CCn1c(=O)c2cnc(Nc3ccc(N4CCN(C)CC4)cc3)nc2n1-c1cccc(C(C)(C)O)n1 [AZD1775] + CCc1c2c(nc3ccc(O)cc13)-c1cc3c(c(=O)n1C2)COC(=O)[C@]3(O)CC [SN-38] (first compound max 1 µM, partner max 0.3 µM)    0.141
5) COc1nnc2ccc(N3CCC(c4ccc(OCCN5CCN(C)C(=O)[C@H]5C)cc4)CC3)nn12 [AZD5153] + Cc1c2c(nn1C)CSCc1cc(n(C)n1)CSc1cc(c3ccccc3c1)OCCCc1c(C(=O)O)n(C)c3c-2c(Cl)ccc13 [AZD5991] (first compound max 1 µM, 7x7, partner max 1 µM)    -0.0482
6) CC1(C)CCC(CN2CCN(c3ccc(C(=O)NS(=O)(=O)c4ccc(NCC5CCOCC5)c([N+](=O)[O-])c4)c(Oc4cnc5[nH]ccc5c4)c3)CC2)=C(c2ccc(Cl)cc2)C1 [Venetoclax] + Cn1cnc2c(F)c(Nc3ccc(Br)cc3Cl)c(C(=O)NOCCO)cc21 [Selumetinib] (first compound max 1 µM, 7x7, partner max 3 µM)    -0.0505

###

- Tested on: D-392MG (Glioblastoma)
- assay explanation: Bliss excess, mean over the matrix (fraction); higher = more synergy
Listed below: Bliss excess values for each entry.
readout type: Bliss excess

1. CN(CCO)CC[C@H](CSc1ccccc1)Nc1ccc(S(=O)(=O)NC(=O)c2ccc(N3CCC([C@@H](O)c4ccccc4-c4ccc(Cl)cc4)CC3)cc2)cc1S(=O)(=O)C(F)(F)F [AZD4320] + CC(=O)O[C@H]1C(=O)[C@@]2(C)[C@H]([C@H](OC(=O)c3ccccc3)[C@]3(O)C[C@H](OC(=O)[C@H](O)[C@@H](NC(=O)c4ccccc4)c4ccccc4)C(C)=C1C3(C)C)[C@]1(OC(C)=O)CO[C@@H]1C[C@@H]2O [Paclitaxel] (first compound max 1 µM, 7x7, partner max 3 µM)    0.129
2. CS(=O)(=O)CCNCc1ccc(-c2ccc3ncnc(Nc4ccc(OCc5cccc(F)c5)c(Cl)c4)c3c2)o1 [Lapatinib] + Cn1cnc2c(F)c(Nc3ccc(Br)cc3Cl)c(C(=O)NOCCO)cc21 [Selumetinib] (first compound max 10 µM, 7x7, partner max 10 µM)    -0.0383
3. Cc1c2c(nn1C)CSCc1cc(n(C)n1)CSc1cc(c3ccccc3c1)OCCCc1c(C(=O)O)n(C)c3c-2c(Cl)ccc13 [AZD5991] + Nc1ccn([C@@H]2O[C@H](CO)[C@@H](O)C2(F)F)c(=O)n1 [Gemcitabine] (first compound max 1 µM, 7x7, partner max 0.3 µM)    -0.112

###

- Test system: TYK-nu (Ovarian Carcinoma)
- assay explanation: Bliss excess, mean over the matrix (fraction); higher = more synergy
readout type: Bliss excess

1) COc1cccc(OCCCN)c1-c1cc(Nc2cnc(C#N)cn2)n[nH]1 [Prexasertib] + O=C(c1cc(Cc2n[nH]c(=O)c3ccccc23)ccc1F)N1CCN(C(=O)C2CC2)CC1 [Olaparib] (first compound max 1 µM, 7x7, partner max 10 µM)    -0.0934
2) CC(=O)c1c(C)c2cnc(Nc3ccc(N4CCNCC4)cn3)nc2n(C2CCCC2)c1=O [Palbociclib] + CN(CC[C@H](CSC1=CC=CC=C1)NC2=C(C=C(C=C2)S(=O)(=O)NC(=O)C3=CC=C(C=C3)N4CCC(CC4)[C@H](C5=CC=CC=C5C6=CC=C(C=C6)Cl)O)S(=O)(=O)C(F)(F)F)CCO [AZD4320] (first compound max 10 µM, 7x7, partner max 1 µM)    -0.0257
3) CCN(CCO)CCCOc1ccc2c(Nc3cc(CC(=O)Nc4cccc(F)c4)[nH]n3)ncnc2c1 [AZD2811] + C[C@@H]1COCCN1C2=NC(=NC(=C2)C3(CC3)[S@](=N)(=O)C)C4=C5C=CNC5=NC=C4 [AZD6738] (first compound max 1 µM, 7x7, partner max 10 µM)    -0.0244

###

- Test system: PA-TU-8902 (Pancreatic Carcinoma)
- assay explanation: Bliss excess, mean over the matrix (fraction); higher = more synergy
readout type: Bliss excess

1. NC1(C(=O)N[C@@H](CCO)c2ccc(Cl)cc2)CCN(c2ncnc3[nH]ccc23)CC1 [Capivasertib] + CC(=O)c1c(C)c2cnc(Nc3ccc(N4CCNCC4)cn3)nc2n(C2CCCC2)c1=O [Palbociclib] (first compound max 10 µM, 7x7, partner max 10 µM)    -0.0606
2. CN(C)CCCOc1ccc(-c2ccc3ncc4c(c3c2)n(C2CCOCC2)c(=O)n4C)cn1 [AZD0156] + O=C(c1cc(Cc2n[nH]c(=O)c3ccccc23)ccc1F)N1CCN(C(=O)C2CC2)CC1 [Olaparib] (first compound max 3 µM, partner max 3 µM)    -0.0456

###

Listed below: Bliss excess values for each entry.
- Test system: EFM-192A (Breast Carcinoma)
- assay explanation: Bliss excess, mean over the matrix (fraction); higher = more synergy
readout type: Bliss excess

1) Cc1cc2ncnn2cc1Nc1ncc2c(n1)n(C1CCOCC1)c(=O)n2C [AZD7648] + C=CCn1c(=O)c2cnc(Nc3ccc(N4CCN(C)CC4)cc3)nc2n1-c1cccc(C(C)(C)O)n1 [AZD1775] (first compound max 10 µM, partner max 1 µM)    0.0338
2) COc1cccc2c1C(=O)c1c(O)c3c(c(O)c1C2=O)C[C@@](O)(C(=O)CO)C[C@@H]3O[C@H]1C[C@H](N)[C@H](O)[C@H](C)O1 [Doxorubicin] + Cc1cc2ncnn2cc1Nc1ncc2c(n1)n(C1CCOCC1)c(=O)n2C [AZD7648] (first compound max 1 µM, 7x7, partner max 10 µM)    -0.0216
3) COc1cccc(OCCCN)c1-c1cc(Nc2cnc(C#N)cn2)n[nH]1 [Prexasertib] + Cc1cc2ncnn2cc1Nc1ncc2c(n1)n(C1CCOCC1)c(=O)n2C [AZD7648] (first compound max 1 µM, 7x7, partner max 10 µM)    -0.0199
4) CCN(CCO)CCCOc1ccc2c(Nc3cc(CC(=O)Nc4cccc(F)c4)[nH]n3)ncnc2c1 [AZD2811] + C[C@@H]1COCCN1C2=NC(=NC(=C2)C3(CC3)[S@](=N)(=O)C)C4=C5C=CNC5=NC=C4 [AZD6738] (first compound max 1 µM, 7x7, partner max 10 µM)    -0.0201

###

- Test system: NOMO-1 (Acute Myeloid Leukemia)
- assay explanation: Bliss excess, mean over the matrix (fraction); higher = more synergy
Label yes for high-side Bliss excess (at or above -0.01) and no for low-side Bliss excess (below it).

1) C[C@@H](Nc1cc(F)cc(F)c1)c1cc(C(=O)N(C)C)cc2c(=O)cc(N3CCOCC3)oc12 [AZD8186] + C1CN(CCC1(C(=O)N[C@@H](CCO)C2=CC=C(C=C2)Cl)N)C3=NC=NC4=C3C=CN4 [AZD5363] (first compound max 10 µM, 7x7, partner max 10 µM)    yes
2) O=C(c1cc(Cc2n[nH]c(=O)c3ccccc23)ccc1F)N1CCN(C(=O)C2CC2)CC1 [Olaparib] + COc1nnc2ccc(N3CCC(c4ccc(OCCN5CCN(C)C(=O)[C@H]5C)cc4)CC3)nn12 [AZD5153] (first compound max 10 µM, 7x7, partner max 1 µM)    no
3) C=CCn1c(=O)c2cnc(Nc3ccc(N4CCN(C)CC4)cc3)nc2n1-c1cccc(C(C)(C)O)n1 [AZD1775] + Nc1ccn([C@@H]2O[C@H](CO)[C@@H](O)C2(F)F)c(=O)n1 [Gemcitabine] (first compound max 1 µM, partner max 0.3 µM)    yes
4) CC(=O)c1c(C)c2cnc(Nc3ccc(N4CCNCC4)cn3)nc2n(C2CCCC2)c1=O [Palbociclib] + Cn1cnc2c(F)c(Nc3ccc(Br)cc3Cl)c(C(=O)NOCCO)cc21 [Selumetinib] (first compound max 10 µM, 7x7, partner max 10 µM)    no
5) CN(C)CCCOc1ccc(-c2ccc3ncc4c(c3c2)n(C2CCOCC2)c(=O)n4C)cn1 [AZD0156] + O=C(c1cc(Cc2n[nH]c(=O)c3ccccc23)ccc1F)N1CCN(C(=O)C2CC2)CC1 [Olaparib] (first compound max 3 µM, partner max 3 µM)    yes
6) CCN(CCO)CCCOc1ccc2c(Nc3cc(CC(=O)Nc4cccc(F)c4)[nH]n3)ncnc2c1 [AZD2811] + C[C@@H]1COCCN1C2=NC(=NC(=C2)C3(CC3)[S@](=N)(=O)C)C4=C5C=CNC5=NC=C4 [AZD6738] (first compound max 1 µM, 7x7, partner max 10 µM)    no
7) NC1(C(=O)N[C@@H](CCO)c2ccc(Cl)cc2)CCN(c2ncnc3[nH]ccc23)CC1 [Capivasertib] + CCN(CCO)CCCOc1ccc2c(Nc3cc(CC(=O)Nc4cccc(F)c4)[nH]n3)ncnc2c1 [AZD2811] (first compound max 10 µM, 7x7, partner max 1 µM)    yes
